- test-target: HLA-DP4 (human)
- Sequence (P20036 29-260, chain 1 of 2): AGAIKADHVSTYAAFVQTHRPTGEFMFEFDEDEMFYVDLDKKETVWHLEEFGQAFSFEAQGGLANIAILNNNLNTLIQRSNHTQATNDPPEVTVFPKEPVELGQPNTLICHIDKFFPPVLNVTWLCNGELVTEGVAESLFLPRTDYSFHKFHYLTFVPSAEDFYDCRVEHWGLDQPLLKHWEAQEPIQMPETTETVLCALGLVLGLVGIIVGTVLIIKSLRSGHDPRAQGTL
- Sequence (P04440 30-258, chain 2 of 2, further chain): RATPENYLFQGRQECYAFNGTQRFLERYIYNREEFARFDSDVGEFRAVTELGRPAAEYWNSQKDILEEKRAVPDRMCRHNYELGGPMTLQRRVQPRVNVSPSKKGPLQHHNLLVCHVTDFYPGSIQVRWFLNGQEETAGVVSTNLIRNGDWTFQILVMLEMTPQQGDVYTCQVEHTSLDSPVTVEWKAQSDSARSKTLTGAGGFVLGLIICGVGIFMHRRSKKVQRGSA
- procedure-summary: DP4 competition ELISA; competitor biotinylated Hep B peptide; 5 fold excess of unlabelled peptide
Where no end group is shown, it is not given here. [ ]: non-standard residue; d: D form. hCit = NC(=O)NCCCC[C@H](N)C(=O)O
Label scheme for % inhibition: lower than 70% is f, 70% and above is t.

| binder | assigned-class |
| --- | --- |
| [hCit]DGADFA[hCit]WRCVL[hCit]IGEH [Aldolase A 140-157 Hcit] | t |
| LEQQN[hCit]MLET[hCit]WSLLQQQ[hCit]T [Cytokeratin 8 112-131 Hcit] | f |
| [hCit]CPLL[hCit]PWALTFSYGRALQ [Aldolase A 289-307 Hcit] | f |
| [hCit]LALDIEIATYR[hCit]LLEGEE [Cytokeratin 8 381-399 Hcit] | f |
| LSDHHVYLEGTLL[hCit]PNMVT [Aldolase A 217-235 Hcit] | t |
| NYID[hCit]VRFLEQQN[hCit]ILLAEL [Vimentin 116-135 Hcit] | f |
